test: Effect on cAMP accumulation in non-TGR5 expressing HEK293-A cells transfected with EPAC-based FRET biosensor at 30 uM incubated for 10 mins in presence of IBMX and roflumilast by fluorescence based photometry relative to control; format: functional, Homo sapiens
readout: Activity (%)
Provide only the numeric value, understood in %.

molecule=Cc1cc(S(=O)(=O)NCCn2ccnc2C2CC2)c(Cl)cc1Cl readout=Activity val=103.9

For CC1(C)c2ccccc2CCN1CC(=O)NC[C@@H]1Cc2ccccc2O1 , what is its reported Activity? 103.7

And what about the molecule c1ccc(-n2cccc2CNC2CCCN(C3Cc4ccccc4C3)C2)nc1 (stereo unspecified) ? 104

And what about the molecule CO[C@@H](CNC(=O)CCc1cc2cc(Br)ccc2s1)Cc1ccccc1 ? 106.4

And what about the molecule CC(C)c1ccccc1OCCC(=O)NC[C@@H]1Cc2ccccc21 ? 107.1

And what about the molecule c1cc(CNC2CC2)cc(-c2cccc3cccnc23)c1 ? 105.3

---

assay: Effect on CRE-luciferase activity in TGR5 non-expressing HEK293-A cells transfected with EPAC-based FRET biosensor assessed as fold activation at 30 uM incubated for 18 hrs by spectrophotometric analysis relative to control; type: functional, Homo sapiens
# label = condition met if fold change (FC) < 1 else condition not met

As a guide, the following entries are already answered.
molecule="c1ccc(-n2cccc2CNC2CCCN(C3Cc4ccccc4C3)C2)nc1 (configuration not stated)" cat="condition not met"
molecule=CC1(C)c2ccccc2CCN1CC(=O)NC[C@@H]1Cc2ccccc2O1 cat="condition met"
molecule=Cc1cc(S(=O)(=O)NCCn2ccnc2C2CC2)c(Cl)cc1Cl cat="condition met"

Find out if reported fold change (FC) for CO[C@@H](CNC(=O)CCc1cc2cc(Br)ccc2s1)Cc1ccccc1 is less than 1 condition met

And what about the molecule Cc1ccc(CCCNC(=O)NCc2cn3c(C)cccc3n2)c(C)c1 ? condition met

And what about the molecule c1cc(CNC2CC2)cc(-c2cccc3cccnc23)c1 ? condition not met

And what about the molecule CC(C)c1ccccc1OCCC(=O)NC[C@@H]1Cc2ccccc21 ? condition met
